B1: TMEM106C (parent)
chain: FTGRDSITCLTCQGTGYIPTEQVN

Variants of: B1
TEST NAME: protein stability index of a GFP-peptide fusion (GPS, HEK-293T) (PSI 1-6); higher = more stable;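 further: lentivirally expressed fusions sorted by FACS into six bins by GFP to DsRed ratio, PSI derived from sequencing read proportions per bin multiplied by bin number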
EXPERIMENTAL CONTEXT: c terminus: a fixed tail appended
READOUT TYPE: protein stability index
Give bare numbers.

Can you give me protein stability index for all of these, one by one?
1. F1I
2. Q22I
3. L10S
4. G16E
5. C9T

Solution:
1. 3.94
2. 1.95
3. 2.85
4. 1.7
5. 1.82
